# Target Under Test: Zap1 (UniProt P47043)
# Sequence: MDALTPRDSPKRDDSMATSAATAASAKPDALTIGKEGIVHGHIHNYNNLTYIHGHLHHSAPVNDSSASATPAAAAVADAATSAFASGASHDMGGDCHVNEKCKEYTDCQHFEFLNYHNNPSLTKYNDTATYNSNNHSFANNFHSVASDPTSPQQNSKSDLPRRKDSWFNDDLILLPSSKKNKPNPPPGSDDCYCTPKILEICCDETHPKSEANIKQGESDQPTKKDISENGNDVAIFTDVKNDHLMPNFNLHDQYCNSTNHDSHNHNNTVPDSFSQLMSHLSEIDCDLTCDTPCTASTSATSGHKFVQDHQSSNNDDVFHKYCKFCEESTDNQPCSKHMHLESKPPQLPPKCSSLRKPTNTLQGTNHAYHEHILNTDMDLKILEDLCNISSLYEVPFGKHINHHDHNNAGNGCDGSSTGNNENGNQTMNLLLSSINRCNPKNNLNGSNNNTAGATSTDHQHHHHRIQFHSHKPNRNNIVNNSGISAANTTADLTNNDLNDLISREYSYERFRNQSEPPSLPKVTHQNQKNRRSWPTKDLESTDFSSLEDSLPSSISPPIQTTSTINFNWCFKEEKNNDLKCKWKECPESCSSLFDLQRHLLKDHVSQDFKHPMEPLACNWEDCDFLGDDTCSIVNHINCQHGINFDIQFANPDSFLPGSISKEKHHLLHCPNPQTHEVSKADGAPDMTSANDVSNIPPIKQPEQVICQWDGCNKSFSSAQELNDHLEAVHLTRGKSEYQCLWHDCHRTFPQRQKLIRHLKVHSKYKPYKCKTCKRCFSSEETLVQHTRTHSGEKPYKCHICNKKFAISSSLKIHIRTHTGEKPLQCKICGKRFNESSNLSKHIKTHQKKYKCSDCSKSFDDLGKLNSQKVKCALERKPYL
# Assay Info: PBM E-score (8-mer binding enrichment) (E-score (-0.5 to 0.5)); higher = stronger / more preferred TF binding
# Reported Conditions: protein concentration: 200 nM; construct: GST-full length
Whole data set: some 33,000 sequences, median “E-score (-0.5 to 0.5)” near -0.021, cut for the highest 2% near 0.32. The sample holds the highest values, similar sequences and a random draw of the others, so the mix is not that of the screen.
Metric: PBM E-score
Give the figure by itself; no unit, no explanation.

What PBM E-score value was documented for this sequence, ATACAATG ?
0.0742

What PBM E-score value was documented for this sequence, ACCTTGCG ?
0.284

What PBM E-score value was documented for this sequence, AGTAAGAT ?
-0.0474

====

Measured PBM E-score, listed per entry for reference.
# Target Under Test: Zap1 (UniProt P47043)
# Sequence: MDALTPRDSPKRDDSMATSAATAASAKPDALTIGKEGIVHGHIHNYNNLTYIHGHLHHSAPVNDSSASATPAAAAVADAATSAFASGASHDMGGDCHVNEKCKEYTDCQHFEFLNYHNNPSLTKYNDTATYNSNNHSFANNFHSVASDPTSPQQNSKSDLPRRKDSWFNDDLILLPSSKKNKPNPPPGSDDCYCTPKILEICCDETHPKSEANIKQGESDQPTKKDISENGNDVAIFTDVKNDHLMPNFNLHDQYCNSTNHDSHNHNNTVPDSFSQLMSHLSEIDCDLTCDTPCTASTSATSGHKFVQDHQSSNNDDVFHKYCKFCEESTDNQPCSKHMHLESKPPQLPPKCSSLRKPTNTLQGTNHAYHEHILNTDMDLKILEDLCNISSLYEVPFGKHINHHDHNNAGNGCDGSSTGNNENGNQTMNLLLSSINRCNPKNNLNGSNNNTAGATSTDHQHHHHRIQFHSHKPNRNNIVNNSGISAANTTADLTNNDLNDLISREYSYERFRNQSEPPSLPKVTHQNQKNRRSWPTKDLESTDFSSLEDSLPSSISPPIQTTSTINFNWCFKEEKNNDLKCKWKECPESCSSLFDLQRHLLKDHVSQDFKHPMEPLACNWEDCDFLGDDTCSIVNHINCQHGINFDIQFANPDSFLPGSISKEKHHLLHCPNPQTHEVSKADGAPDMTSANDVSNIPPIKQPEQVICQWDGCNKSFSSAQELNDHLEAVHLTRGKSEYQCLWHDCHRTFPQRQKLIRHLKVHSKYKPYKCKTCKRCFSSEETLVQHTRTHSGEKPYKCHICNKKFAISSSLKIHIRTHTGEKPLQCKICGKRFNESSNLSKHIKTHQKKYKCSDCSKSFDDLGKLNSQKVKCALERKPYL
# Assay Info: PBM E-score (8-mer binding enrichment) (E-score (-0.5 to 0.5)); higher = stronger / more preferred TF binding
# Reported Conditions: protein concentration: 200 nM; construct: GST-full length
In all, about 33,000 sequences were measured (“E-score (-0.5 to 0.5)”: median about -0.021, highest 2% from about 0.32 on). This is one part of a sample in which the highest values are shown more often than they occur.
Give the figure by itself; no unit, no explanation.

CTCTTGCA = -0.161
CAAACCTA = 0.166
CGAGAGGA = -0.0403
AGCCACAA = 0.153
ATCCCCTA = 0.0194
GGCGATCA = -0.283
AAACCCAA = 0.312
GGAGCGAC = -0.122

What PBM E-score value was documented for this sequence, CAACCCGG ?
0.213

What PBM E-score value was documented for this sequence, ACCCCCTA ?
-0.354

What PBM E-score value was documented for this sequence, ATGGTCAC ?
0.312
